Entries and their measured melting point follow.

Known results for compounds:
molecule: CC[C@@]12C[C@H](O)[C@](O)(c3c(F)cccc3F)C[C@H]1CCc1cc(O)ccc12
melting point: 198 to 200 °C

molecule: CC[C@@]12C[C@@](C)(O)[C@](O)(c3ccccc3)C[C@H]1CCc1cc(OCC(=O)O)ccc12
melting point: 190 to 191 °C

What value of melting point has been recorded for this entry: CC[C@@]12C[C@](O)(C(C)C)[C@](O)(c3ccccc3)C[C@H]1CCc1cc(O)ccc12
236 to 237 °C

###

test readout: melting point

compound: CC[C@@]12C[C@@](C)(O)[C@](O)(c3ccccc3)C[C@H]1CCc1cc(OCC(C)(C)O)ccc12
melting point: 190 to 193 °C
//
compound: CC[C@@]12C[C@@](C)(O)[C@](O)(c3ccccc3)C[C@H]1CCc1cc(OCc3nnn[nH]3)ccc12
melting point: 108 to 110 °C
//
compound: CC[C@@]12C[C@H](O)[C@](O)(c3c(F)cccc3F)C[C@H]1CCc1cc(OCc3cccnc3C)ccc12 (hydrate or solvate)
melting point: 80 to 83 °C

Consider the record given below.
What value of melting point has been recorded for this entry: CC[C@@]12C[C@H](N)[C@](O)(c3ccccc3)C[C@H]1CCc1cc(O)ccc12
209 to 210 °C
